Attribution: PubChem BioAssay (NCI)

So I've got a bunch of compounds here, and I need their growth inhibition values.
measurement_notes: NCI Yeast Anticancer Drug Screen. Data for the sgs1 mgt1 strain (AID 161);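 also: 0% = growth of cultures given vehicle only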
experimental_parameters: S. cerevisiae sgs1 mgt1 strain, at 50.0 µM, hits give high values
Compounds without any hit were thinned out: in the full panel of roughly 79,000, 15% have a hit.
Reply with just the number (in %).

Value of measured growth inhibition for the entry `N#C/C(=C/c1ccc(Cl)cc1)C(=O)O` : -13.3

Sure, the documented growth inhibition for `NC(=O)c1ccc(C(F)(F)F)cc1O` is -4.65

Quick note, growth inhibition for O=C(O)C1Cc2c([nH]c3ccccc23)C(c2cccs2)N1 (configuration not stated) landed at 8.7

// recorded growth inhibition for `CC(C)N(C(=O)C12CC3CC(CC(C3)C1)C2)C(C)C` : 8.05

growth inhibition measured on `CC(C)[C@H]1CC[C@@](C)(C(=O)O)C1` = 15.2

Recorded result, C=CCNC(=O)CCCCCCCC1C(CCCCCCCC)C2(Cl)C(Cl)=C(Cl)C1(Cl)C2(Cl)Cl (configuration not stated) , growth inhibition: 18.2

Sure, the documented growth inhibition for `OC(Cc1ccc2ccccc2n1)(C(F)(F)Cl)C(F)(F)Cl` is -10.7

Query `O=C(O)c1ccc2c3ccc(C(=O)O)c4c(C(=O)O)ccc(c5ccc(C(=O)O)c1c25)c43` yields growth inhibition of -17.5

Summary for this compound, `CSc1nc(N)c(N)c(N)n1` : growth inhibition is -2.75

Notebook: `Cc1cc(N=Nc2ccccc2)c2cccnc2c1N` , growth inhibition read as -7.5

What the record says about `Cc1nc(N)nc(-c2ccccc2)c1N=Nc1cc(Cl)cc(Cl)c1` : growth inhibition is -3.65

Form: compound = [N-]=[N+]=NC1CC(n2ccc(=O)[nH]c2=O)OC1CO (configuration not stated) ; growth inhibition = 3.3

----------
Kindly supply the reported growth inhibition values for the records listed here.
measurement_notes: NCI Yeast Anticancer Drug Screen. Data for the cln2 rad14 strain (AID 165);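 also: 0% = growth equal to vehicle treated cultures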
experimental_parameters: S. cerevisiae cln2 rad14 strain, at 50.0 µM, hits give high values
The panel holds about 79,000 compounds, 15% with a hit somewhere; the sample as a whole holds those more often. The source made the active and inactive calls. Rule as the data show it: active = growth inhibition above about 70%; inactive = the rest.

Quick note, growth inhibition for `O=c1cc(NCc2cccc3ccccc23)[nH]c(=O)[nH]1` landed at -10.1% (inactive)

Please fill in: growth inhibition reported for `S=C(Nc1ccc(N=Nc2ccccc2)cc1)SCc1ccc(Cl)cc1` = 13.1% (inactive)

Briefly, growth inhibition measured for `COc1ccc(CN=CN/C(C#N)=C(\N)C#N)cc1OC` : 6.55% (inactive)

The molecule listed as `NC(N)=NC(N)=Nc1ccc(C(=O)O)cc1` shows growth inhibition equal to -29.2% (inactive)

Item: `O=C(Nc1ccc2ncccc2c1)Nc1ccc2ncccc2c1` | growth inhibition: -4.85% (inactive)

Input `O=C(O)c1ccc2ncc(-c3ccccc3)nc2c1` . Output growth inhibition: -31.1% (inactive)

Form: molecule = `COC(=O)NC(C(F)(F)F)(C(F)(F)F)P1(=O)OCCCO1` ; growth inhibition = 43% (inactive)

# molecule `CN(Cc1ccccc1)C(=O)c1ccc(C(=O)N(C)Cc2ccccc2)cc1` ; its growth inhibition = -3.95% (inactive)

Consider `CCC/C(=N/NC(N)=O)c1ccco1` . Its measured growth inhibition is -2.25% (inactive)

get_value(item= `O=C(O)c1ccc2c3ccc(C(=O)O)c4c(C(=O)O)ccc(c5ccc(C(=O)O)c1c25)c43` , readout=growth inhibition) returns -0.25% (inactive)

The measured growth inhibition associated with CC(O)C1CCCCC1O (configuration not stated) reads -8.65% (inactive)

// recorded growth inhibition for `O=c1/c(=C/c2ccco2)sc2nc3ccccc3n12` : 29.8% (inactive)

----------
measurement_notes: NCI Yeast Anticancer Drug Screen. Data for the cln2 rad14 strain (AID 165);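 also: 0% = growth equal to vehicle treated cultures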
experimental_parameters: S. cerevisiae cln2 rad14 strain, at 50.0 µM
This is part of a sample that, as a whole, favours compounds with a hit. Of some 79,000 tested, about 15% had one in any assay. The source made the active and inactive calls. Rule as the data show it: active = growth inhibition above about 70%; inactive = the rest.
Pick one and only one: 1 (yes) (active), 0 (no) (inactive)

[ask] Would you mind telling me which call this test gave `Cc1cc2cc(Cl)ccc2nc1C(=O)c1ccccc1` ?
[reply] 0 (no)

[ask] Test call, this compound: `Cc1c(C)c2cc3ccc(Cl)cc3nc2c2ccccc12`
[reply] 0 (no)

[ask] Test call, this compound: `O=C(Nc1nccs1)c1c(O)nc2sccn2c1=O`
[reply] 0 (no)

[ask] Record lookup: outcome of this test for `CCN1C(=O)C(=O)C(CC)(CC)C1=O` ?
[reply] 0 (no)

[ask] // return assay outcome for `O/N=C(\CC(O)(C(F)(F)F)C(F)(F)F)c1cccs1`
[reply] 1 (yes)

[ask] Recorded call for CCc1cn(C2CC(CO)C(CO)S2)c(=O)[nH]c1=O (configuration not stated) ?
[reply] 0 (no)

[ask] Dear colleague, could you share the recorded outcome for `CCOc1ccc(N(O)C(C)=O)cc1` when you have a moment?
[reply] 0 (no)

[ask] Please share the test call associated with `COc1ccc2c(c1)CCc1cc(OC)ccc1/[N+]([O-])=[N+]\2[O-]` .
[reply] 0 (no)

[ask] Status in this test for `COc1ccc(-c2c(C(=O)O)cc(O)c3cc(OC)c(OC)cc23)cc1OC` ?
[reply] 0 (no)

[ask] Hi, do you know how O=C1C(N=Cc2c(O)ccc3ccccc23)CON1C(c1ccccc1)(c1ccccc1)c1ccccc1 (configuration not stated) came out in this test?
[reply] 0 (no)

[ask] Lab log entry: CCN(CC)CCC(O)(Cc1ccccc1)c1cccc(Cl)c1 (configuration not stated) — outcome as called in the assay?
[reply] 0 (no)

[ask] Write down the call the test reported for this compound. Item: `COc1cc(/C=C/C(=O)c2ccccc2O)cc(OC)c1OC`
[reply] 0 (no)

----------
Answer each item with its documented growth inhibition.
measurement_notes: NCI Yeast Anticancer Drug Screen. Data for the rad50 strain (AID 155);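 also: 0% = growth of vehicle-only cultures of the same strain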
experimental_parameters: S. cerevisiae rad50 strain growth inhibition; at 50.0 µM; hits give high values
The panel holds about 79,000 compounds, 15% with a hit somewhere; the sample as a whole holds those more often.
State the answer as a number, implicitly in %.

The molecule listed as `CC(C)(C)C(C)(C)CC(N)=O` shows growth inhibition equal to 7.25

Per the record, `O=C(Nc1ccc(Cl)cc1)OCc1ccco1` has growth inhibition of 2.2

The reported value for `COC(=O)/C=C/c1ccc(OC(C)=O)c(OC)c1` in terms of growth inhibition is -1.9

response.value for `CC(C)C/C(CC(=O)CCC(=O)Nc1ccccc1[N+](=O)[O-])=N\NC(=O)c1cc2ccccc2cc1O` (field: growth inhibition) = 17.8

Form: molecule = CCOC(=O)C12CCCC1(O)N(NC(=O)OC(C)(C)C)C(C)=C2C(=O)OC (stereo not given) ; growth inhibition = -7.85

Reported growth inhibition for Cc1ccc(C(C#N)c2ccc(N)cc2)cc1 (stereo not given) was 21.9

growth inhibition for CC1(C)C2CCC1(C)C(OC(=O)C1OC(O)C(O)C(O)C1O)C2 (stereo not given) is -1.3

Lab note: measured growth inhibition of `CC(C)[C@H]1CC[C@@](C)(C(=O)O)C1` was 12.4

Input `O=C(O)C#Cc1ccccc1[N+](=O)[O-]` . Output growth inhibition: 21.1

Record `CCc1nc2cc(F)ccc2[nH]c1=O` , field growth inhibition: 17.3

// field: growth inhibition; key: `Nc1cccc(S(=O)(=O)Nc2c(N)nc(SCC(=O)O)[nH]c2=O)c1` ; value = -15

The molecule identified as `CC1=CC(=O)C=CC1=Nc1ccc(N(C)C)cc1` registered its growth inhibition at 19.3

`O=C1NC(N2CCCCC2)=N/C1=C\c1ccccc1` yielded growth inhibition of 25.7

Given item `CC(C)[Si](C#CC[Si](C(C)C)(C(C)C)C(C)C)(C(C)C)C(C)C` , the value recorded as its growth inhibition is -13.8

Record `COc1ccc(CN=CN/C(C#N)=C(\N)C#N)cc1OC` , field growth inhibition: -21.2

The measured growth inhibition associated with `CCCCCC(=O)Oc1ccccc1OC` reads -8.1

Sample COC(CCCl)c1ccc(C)cc1 (stereo not given) ; growth inhibition observed: -9.4

The molecule listed as `Oc1cccc(C(c2ccccc2)c2ccccc2)c1` shows growth inhibition equal to -0.6

The value of growth inhibition measured for the molecule `Cc1cccc(C(C)(C)C)c1NC(=O)C(=O)Cc1nc2ccccc2s1` turned out to be -12.1

Consider FC1(F)C(F)(F)C(F)(F)C2(F)C(F)(F)C(F)(F)C(F)(F)C(F)(F)C2(F)C1(F)F (stereo not given) . Its measured growth inhibition is -25.2

// `CCCCCCCCCO` : growth inhibition value = 13.7

Form field growth inhibition, entry O=C1Nc2cccc3cc(NCC(O)CCl)cc1c23 (stereo not given) : 31.3

Quick note, growth inhibition for c1ccc(COC[C@H]2O[C@@H](c3ccccc3)C[C@@H](OCc3ccccc3)C2OCc2ccccc2)cc1 (stereo not given in full) landed at -20.3

// `C/C=C/C(=O)OCCCCCCCCCCCCCCCCCC` : growth inhibition value = 13.7

Notebook: `O=S(=O)(Oc1ccc(Cl)cc1)c1ccc(Br)cc1` , growth inhibition read as 10.7

Documented growth inhibition of `CC(C)(O)c1cc2nc3ccccc3nc2n1CCO` : -19.6

Lab book: growth inhibition of `C(CCN1CN(CCCCN2CCOCC2)CN(CCCCN2CCOCC2)C1)CN1CCOCC1` noted as 12.8

Please fill in: growth inhibition reported for `NCCCCCC(=O)O` = -37.5

Per the record, `CCCCCCCCCC(=O)N/N=C/c1ccccc1O` has growth inhibition of -4.3

# growth inhibition (molecule: `C1CCC2(CC1)OCCS2` ) is 24.6

// recorded growth inhibition for O=C1c2cc3c(cc2CC1Cc1ccc2c(c1)CCC2)CCC3 (stereo not given) : -28.8

Measured growth inhibition, `O=c1[nH]cnc2sc3c(c12)CCC3` : 30.6

Note to self: growth inhibition recorded for `Cc1ccc([N+](=O)[O-])cc1Br` was 0.3

The value of growth inhibition measured for the molecule ClC1CCC(c2ccccc2)CC1 (stereo not given) turned out to be 9.2

Entry under test: `O=C(Nc1ccc(CSc2ccc(Cl)cc2)o1)N1CCOCC1` . Its growth inhibition was 15.7

Kindly note the recorded growth inhibition for COc1ccc(Cl)cc1C(O)CN1CCCCC1 (stereo not given) , which is -8.35

Note to self: growth inhibition recorded for `CCCOC(=O)c1cc(O)ccc1O` was 1.15

Per the record, `O=C(CCC1CCCCC1)OC1CCCC1` has growth inhibition of 12

Lab book: growth inhibition of `O=C1C(=O)c2ccccc2C(O)=C1CC=C(Cl)Cl` noted as -3.9

So for `CCCCCCCCCCCCCCCC(=O)CCCCCCCCCCCCCCC` , the logged growth inhibition turned out to be 21.1

// recorded growth inhibition for CC(=O)OC1CCC2(C)C(CCC3C2CCC2(C)C(C(C)C(=O)O)CCC32)C1 (stereo not given) : -10.7

// sample CC(=O)NC1=NN(C(C)=O)C(C)(c2ccccc2)S1=O (stereo not given) , its growth inhibition was 9.65

Query `Cc1n[n+](Cc2ccccc2)c2sc(N)nn12` yields growth inhibition of 2.85

Sure, the documented growth inhibition for `O=C1/C(=C/c2ccccc2)SC(=S)N1C1c2ccccc2Oc2ccccc21` is 35.4

Per the records, this molecule ( COC(=O)C1CCC(C)(C(=O)OC)C1(C)C (stereo not given) ) has growth inhibition equal to 0

// field: growth inhibition; key: `C/C(=N\Nc1ccccc1)c1sc(-c2nc(C)c(/C(C)=N/Nc3ccccc3)s2)nc1C` ; value = 24.3

Entry `COC(=O)C1=C(C(=O)OC)C2CCC1O2` ; growth inhibition = -0.5

Looking up `Cc1cc(N(CCC#N)CCC#N)ccc1/C(N=Nc1cccc(Cl)c1)=N/NC(=O)c1cc(Cl)ccc1O` , I found its growth inhibition recorded as 21

The molecule listed as `CCCCOc1ccc([N+](=O)[O-])cn1` has a reported growth inhibition of 20.8

The value of growth inhibition measured for the molecule `Cc1ccc(S(=O)(=O)N2CCC(C(=O)N3CCCC3)(c3cccc(C)c3)CC2)cc1` turned out to be -55.5
